- Test system: T1, recombinant human MCP-2 (human, UniProt P80075 24-99)
- T1 construct: also called rhMCP-2
- T1 sequence (looked up): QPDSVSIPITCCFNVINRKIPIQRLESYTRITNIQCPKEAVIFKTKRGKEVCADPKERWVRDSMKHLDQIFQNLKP
- Test: ELISA, coated antigen
- Description: Determining cross-reactivity of anti-MCP-1 antibodies with other chemokines. […]
Property: ELISA OD (OD450)
Supply the numeric figure in OD450, leaving out any unit text.

A selection of reference data follows.
Binder	Property	Data value
anti-MCP-1 mAb 1.4.1 (antibody, V domains shown) VH: QSGPGLVKPSQTLSLTCAISGDSVSSNSAAWNWIRQSPSRGLEWLGRTYYRSKWYSDHAVSVRSRITIYPDTSKNQFSLQLNSVTPEDTAVYYCARDRISGTYVGMDVWGQGTTVTVSS VL: DIGMTQTPLSLSVTPGQPASISCKSSQSLLYSDGKTYLYWYLQKPGQPPQHLIYEVSNRFSGVPDRFSGSGSGTDFTLKISRVEADDVGVYYCMQTIHLPLTFGGGTKVEIQR	ELISA OD	0.046
anti-MCP-1 mAb 1.13.1 (antibody, V domains shown) VH: QVQLVQSGAEVKKPGASVKVSCKVSGHTLTELSMHWVRQAPGKGLEWMGGFDPEDDETIYAQKFQDRVTMTEDTSTDTAYMELSSLRSEDTAVYYCATNDFWSGYFDCWGQGTLVTVSS VL: DIVLTQSPDSLAVCLGERATINCKSSQSVLYSPNNKNFLVWYQQRPGQPPKLLIYWASTRESGVPDRFSGSGSGTDFTLTISSLQAEDVAVYYCQQYYSSPWTFGQGTKVEIKR	ELISA OD	0.046

As a next step, examine the binder that follows.
Enquiry: Fill blank: measured ELISA OD of the binder anti-MCP-1 mAb 1.2.1 (antibody, V domains shown) VH: QVQLVQSGAEVKKPGASVKVSCKVSGYTFTELSMHWVRQAPGKGLEWMGGFDPEDGETSYAQKFRGRVTMTEDTSTDTAHMELSSLRSEDTAVYYCATNDFWSGYFDYWGQGTLVTVSS VL: DIQMTQSPSSVSASVGDRVTITCRASQGIDIYLAWYQQKPGKAPKLLINAASSLQNGVPSRFGGSGSGTDFTLTISGLQPEDFATYYCQLTYFFPWTFGQGTKVEIKR is ____.
Return: 0.056
